test-target: E1E2 of HCV isolate UKN4.11.1 (genotype 4) (Hepatitis C virus genotype 4)
protocol: cell-based or functional assay
Each entry below carries its reported IC50, HCVpp neutralization.
value-type: IC50, HCVpp neutralization

| binder | data-value |
| --- | --- |
| AT12-011 (antibody, V domains shown) VH: QVQLVQSGAEVKKPGSSVKVSCKASGGTFSGYGITWVRQAPGQGLEWMGTIIPVSATETYAQRLQGRVTISADEHSTTSYMEVSSLKSEDTALYYCARHDYFWGTPLDIWGQGTMVIVSS VL: EIVLTQSPDFQSVTPKEKVTITCRASQSIGSNLHWYQQKPGQSPKLLIKYASQSFSGVPSRFSGSGSGTDFTLTINSLEAEDAATYFCHQSYNLPRTFGGGTKVEIKR | > 50 µg/mL |
| AT12-007 (antibody, V domains shown) VH: QVQLEQSGAEVKKPGASVKVSCKVSGYTLTELSMHWVRQAPGKGLEWMGSFDPADGERLYAQKFQGRVIMSEDTSTDTAYMELSSLRSEDAAVYYCATAPRMTMFGVIMALDSWGQGTLVTVSS VL: DIQMTQSPSTLSASLGDRVTITCRASQNINKYLAWYQQKPGKAPKLLIYKASNLQSGVPSRFSGSGSGTDFILTISSLQPDDFATYYCQQYTTYSAWTFGQGTNVDIKR | 1.87 µg/mL |
| AT12-010 (antibody, V domains shown) VH: QLQLVQSGAEVKKPGSSVKVSCKASGGTFTSYAINWVRQVPGQGLEWMGEISPVFGTTHYAQKFQGRLKITADESADTAYMELSSLRSDDTAVYYCGRDRAPRLCSGGRCHSPPDHWGQGTLVTVSS VL: DIQMTQSPSSVSASVGDRVTITCRASQGFGNWLAWYQQKPGRAPKLLIFGASTLQNGVPSRFSGSASGTDFTLTITSLQPEDFATYYCLQTNTFPYTFGQGTKVEIKR | > 50 µg/mL |
